Biological target: CRBN-DDB1 (Homo sapiens (Human), UniProt Q96SW2)
Sequence (Q96SW2 whole entry): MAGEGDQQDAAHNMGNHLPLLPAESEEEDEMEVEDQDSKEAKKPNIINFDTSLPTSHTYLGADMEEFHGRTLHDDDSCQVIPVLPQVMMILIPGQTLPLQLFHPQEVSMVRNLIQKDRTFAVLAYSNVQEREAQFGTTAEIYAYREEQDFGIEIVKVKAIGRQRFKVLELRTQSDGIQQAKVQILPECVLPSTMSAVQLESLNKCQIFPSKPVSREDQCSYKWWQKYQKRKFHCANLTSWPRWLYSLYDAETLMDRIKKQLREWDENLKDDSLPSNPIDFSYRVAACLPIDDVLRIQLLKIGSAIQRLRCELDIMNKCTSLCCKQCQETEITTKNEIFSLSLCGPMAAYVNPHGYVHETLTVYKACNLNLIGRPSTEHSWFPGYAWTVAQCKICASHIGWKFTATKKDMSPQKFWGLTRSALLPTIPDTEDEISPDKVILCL
Sequence (Q16531 whole entry partner): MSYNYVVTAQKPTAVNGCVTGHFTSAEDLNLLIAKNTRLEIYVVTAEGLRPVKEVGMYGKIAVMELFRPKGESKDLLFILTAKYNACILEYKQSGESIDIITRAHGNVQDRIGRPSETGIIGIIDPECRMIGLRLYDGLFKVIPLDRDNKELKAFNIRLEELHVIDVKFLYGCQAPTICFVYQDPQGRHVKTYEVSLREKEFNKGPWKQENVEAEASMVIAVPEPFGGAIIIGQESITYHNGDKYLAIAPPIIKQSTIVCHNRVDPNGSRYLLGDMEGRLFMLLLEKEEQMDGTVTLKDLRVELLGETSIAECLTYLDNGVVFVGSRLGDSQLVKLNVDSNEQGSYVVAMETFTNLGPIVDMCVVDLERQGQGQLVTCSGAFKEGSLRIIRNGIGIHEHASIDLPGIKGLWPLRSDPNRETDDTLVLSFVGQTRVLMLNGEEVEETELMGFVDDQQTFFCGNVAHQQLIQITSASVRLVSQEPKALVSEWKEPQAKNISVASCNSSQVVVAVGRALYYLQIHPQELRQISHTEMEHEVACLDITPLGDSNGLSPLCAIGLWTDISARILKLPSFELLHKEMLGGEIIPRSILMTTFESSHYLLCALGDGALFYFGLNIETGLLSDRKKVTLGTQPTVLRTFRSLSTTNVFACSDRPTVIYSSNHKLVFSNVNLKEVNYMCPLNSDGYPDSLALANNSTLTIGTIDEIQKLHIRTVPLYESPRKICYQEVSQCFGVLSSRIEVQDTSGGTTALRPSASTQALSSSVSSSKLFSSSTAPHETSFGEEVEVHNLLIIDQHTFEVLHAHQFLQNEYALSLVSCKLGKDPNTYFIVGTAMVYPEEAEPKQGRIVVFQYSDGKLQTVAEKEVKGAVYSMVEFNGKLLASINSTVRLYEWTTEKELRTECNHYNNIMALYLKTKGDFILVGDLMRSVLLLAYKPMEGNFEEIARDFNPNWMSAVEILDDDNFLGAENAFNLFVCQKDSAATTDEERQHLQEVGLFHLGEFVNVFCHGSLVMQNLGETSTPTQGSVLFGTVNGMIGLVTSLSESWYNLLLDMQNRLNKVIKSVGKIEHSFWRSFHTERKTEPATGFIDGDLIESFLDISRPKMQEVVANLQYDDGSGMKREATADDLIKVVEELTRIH
Experiment: Compound binding to CRBN by HTRF assay
Description: Compound activity was monitored in a Homogenous Time-Resolved Fluorescence (HTRF) assay using 1-[5-({2-[2-(2-{[2-(2,6-dioxopiperidin-3-yl)-1,3-dioxo-2,3-dihydro-1H-isoindol-4-yl]oxy}acetamido)ethoxy]ethyl}carbamoyl)pentyl]-3,3-dimethyl-2-[(1E,3E)-5-[(2E)-1,3,3-trimethyl-5-sulfo-2,3-dihydro-1H-indol-2-ylidene]penta-1,3-dien-1-yl]-3H-indol-1-ium-5-sulfonate as a fluorescent probe. Biochemical assays were conducted in Greiner white 384 well HiBase plates (Cat. No 784075-25) in 20 μL total volume. […]
attribute_measured: pEC50
# pEC50 is unitless: minus log10 of the molar concentration; print number only

Worked examples, 2 compounds total:
INSERT INTO measurements (compound, readout_value) VALUES
  ('CC(C)(C(=O)NCc1cc(Cl)c(C2CCC(=O)NC2=O)c(Cl)c1)c1ncc(Cl)cn1 (stereo not drawn)', 6.92),
  ('CC(C)(C(=O)NCc1cc(F)c(C2CCC(=O)NC2=O)c(Cl)c1)c1nocc1C(F)(F)F (stereo not drawn)', 6.72);

We next turn to a different compound, shown below.
Fill in the recorded pEC50 for this compound, with CRBN-DDB1 (Homo sapiens (Human), UniProt Q96SW2) as test system: CC(C)(C(=O)NCc1cc(Cl)c(C2CCC(=O)NC2=O)c(Cl)c1)c1ccnc(C#N)c1 (stereo not drawn)
6.74
